Just for reference, patent US11623919B2 is where these values come from.

Target: UniProt Q99572
Sequence (Q99572 1-595): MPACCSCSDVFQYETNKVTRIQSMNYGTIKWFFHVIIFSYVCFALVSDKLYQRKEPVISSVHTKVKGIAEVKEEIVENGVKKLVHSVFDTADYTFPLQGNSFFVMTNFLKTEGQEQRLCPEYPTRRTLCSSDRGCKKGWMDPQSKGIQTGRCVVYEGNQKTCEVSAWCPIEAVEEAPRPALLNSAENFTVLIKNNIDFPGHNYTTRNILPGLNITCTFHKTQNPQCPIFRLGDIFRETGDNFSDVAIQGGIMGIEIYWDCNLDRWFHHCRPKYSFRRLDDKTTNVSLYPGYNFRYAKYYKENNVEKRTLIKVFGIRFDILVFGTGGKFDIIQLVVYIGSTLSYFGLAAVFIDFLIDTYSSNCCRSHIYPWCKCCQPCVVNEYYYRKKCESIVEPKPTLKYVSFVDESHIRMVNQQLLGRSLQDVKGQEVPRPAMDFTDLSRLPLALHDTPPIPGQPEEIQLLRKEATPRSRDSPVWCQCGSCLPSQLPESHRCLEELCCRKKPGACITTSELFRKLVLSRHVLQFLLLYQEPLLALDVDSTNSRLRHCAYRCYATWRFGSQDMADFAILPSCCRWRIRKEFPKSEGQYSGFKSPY
Assay: Screen Quest Fluo-8 No Wash Calcium Assay (Bz-ATP evoked Ca2+ influx, FLIPR)
Type: cell-based
Parameters: hP2X7 (IC50; nM); other: hP2X7; HEK-293 cells stably transfected with P2X7 receptor, Bz-ATP at EC80, Fluo-8 NW; potency
Conditions: hP2X7; HEK-293 cells stably transfected with P2X7 receptor, Bz-ATP at EC80, Fluo-8 NW; potency ranges A-D
Parameter: IC50. Scope: all listed entries.

SMILES NOTATION | RECORDED RESULT
O=c1onc(Cc2ccccc2)n1CC1CCCCC1 | 1000 to 10000 nM

Below: the item to evaluate.
Look up and report measured IC50 for this entry: "O=c1onc(Cc2ccccc2Cl)n1CC1CCCCC1"
200 to 1000 nM
